assayTarget: ERα (Homo sapiens, UniProt P03372)
protocolDescription: Degradation of ERα in MCF-7 cells (immunoblotting, 4 h)
Format: cell-based
experimentalContext: 1nM compound
resultType: Degradation rate (%) of ERα in MCF-7 cells

O=C1CCC(N2Cc3c(ccc4c3OCC43CCN(C(=O)C4CCN(C5CCN(c6ccc([C@@H]7c8ccc(O)cc8CC[C@@H]7c7ccccc7)cc6)CC5)CC4)CC3)C2=O)C(=O)N1 (stereo partly shown) [K7]
55
O=C1CCC(N2Cc3c(ccc4c3OCC43CCN(C4CCN(C5CC6(CCN(c7ccc([C@@H]8c9ccc(O)cc9CC[C@@H]8c8ccccc8)cc7)CC6)C5)CC4F)CC3)C2=O)C(=O)N1 (stereo partly shown) [H33]
32
C[C@@H]1CN(C(=O)C2CCN(c3cc(F)c(C4c5ccc6[nH]ncc6c5C[C@@H](C)N4CC(F)F)c(F)c3)CC2)CCC1N1CCC2(CC1)COc1c2ccc2c1CN(C1CCC(=O)NC1=O)C2=O (stereo partly shown) [B40]
54
C[C@@H]1Cc2cc(O)ccc2C(c2c(F)cc(N3CCC4(CC3)CC(N3CCC(N5CCC6(CC5)COc5c6ccc6c5CN(C5CCC(=O)NC5=O)C6=O)[C@@H](F)C3)C4)cc2F)N1CC(F)F (stereo partly shown) [I3]
40

====

assayTarget: ERα (Homo sapiens)
protocolDescription: Degradation of ERα in MCF-7 cells (immunoblotting, 4 h)
Format: cell-based
experimentalContext: 1nM compound
resultType: Degradation rate (%) of ERα in MCF-7 cells

Recorded results for 4 compounds are shown here.
O=C1CCC(N2Cc3ccc4c(c3C2=O)OCC2(CCN(C3CCC5(CC3)CCN(c3ccc([C@@H]6c7ccc(O)cc7CC[C@@H]6c6ccccc6)cc3)CC5)CC2)C4)C(=O)N1 (stereo partly drawn)
23
O=C1CCC(N2Cc3c(ccc4c3OCC43CCN(C(=O)C45CCC(CN6CCN(c7ccc([C@@H]8c9ccc(O)cc9CC[C@@H]8c8ccccc8)cc7)CC6)(CC4)CC5)CC3)C2=O)C(=O)N1 (stereo partly drawn)
1
O=C1CCC(N2Cc3c(ccc4c3OCC43CCN(C4C5CCC4CN(C(=O)C4CCN(c6ccc([C@@H]7c8ccc(O)cc8CC[C@@H]7c7ccccc7)cc6)CC4)C5)CC3)C2=O)C(=O)N1 (stereo partly drawn)
32
O=C1CCC(N2Cc3cc4c(cc3C2=O)C2(CCN(CC3CCN(c5ccc([C@@H]6c7ccc(O)cc7CC[C@@H]6c6ccccc6)cc5)CC3)CC2)CO4)C(=O)N1 (stereo partly drawn)
-6

(I) O=C1CCC(N2Cc3c(ccc4c3OCC43CCN(C4CC5CCCC(C4)N5C(=O)C4CCN(c5ccc([C@@H]6c7ccc(O)cc7CC[C@@H]6c6ccccc6)cc5)CC4)CC3)C2=O)C(=O)N1 (stereo partly drawn) [D1]
(II) O=C1CCC(N2Cc3cc4c(cc3C2=O)CCC2(CN(CC3CCC5(CC3)CN(c3ccc([C@@H]6c7ccc(O)cc7CC[C@@H]6c6ccccc6)cc3)C5)C2)O4)C(=O)N1 (stereo partly drawn)
Lower value of Degradation rate (%) of ERα in MCF-7 cells belongs to which: I or II ? The response must carry the label of the picked entry.
II
(II: -23%, I: 19%)

(1) C[C@@H]1Cc2c(ccc3[nH]ncc23)[C@@H](c2c(F)cc(N3CCC(C(=O)N4CCC(N5CCC6(CC5)COc5c6ccc6c5CN(C5CCC(=O)NC5=O)C6=O)CC4)CC3)cc2F)N1CC(F)F (stereo partly drawn)
(2) O=C1CCC(N2Cc3c(ccc4c3OCC43CCN(C4CCC5(CC4)CCN(c4ccc([C@@H]6c7ccc(O)cc7CC[C@@H]6c6ccccc6)cc4)CC5)CC3)C2=O)C(=O)N1 (stereo partly drawn)
Degradation rate (%) of ERα in MCF-7 cells comparison. Which is larger, 1 or 2 ? // return label of chosen record
1

(1) O=C1CCC(N2Cc3c(ccc4c3OCC43CCN(C4CCN(C(=O)C5(F)CCN(c6ccc([C@@H]7c8ccc(O)cc8CC[C@@H]7c7ccccc7)cc6)CC5)CC4)CC3)C2=O)C(=O)N1 (stereo partly drawn)
(2) O=C1CCC(N2Cc3cc4c(cc3C2=O)OC2(CC4)CN(C(=O)CN3CCC4(CC3)CCN(c3ccc([C@@H]5c6ccc(O)cc6CC[C@@H]5c5ccccc5)cc3)CC4)C2)C(=O)N1 (stereo partly drawn)
Please let me know which one, 1 or 2 , has a lower measured Degradation rate (%) of ERα in MCF-7 cells value. Pick one; state its label.
2

(1) C[C@@H]1Cc2c(ccc3[nH]ncc23)[C@@H](c2c(F)cc(N3CCC4(CCN(C(=O)CN5CCC6(CC5)COc5c6ccc6c5CN(C5CCC(=O)NC5=O)C6=O)C4)CC3)cc2F)N1CC(F)F (stereo partly drawn)
(2) CCNC(=O)[C@H]1CC(N2CCC3(CC2)COc2c3ccc3c2CN(C2CCC(=O)NC2=O)C3=O)CCN1C1CC2(CCN(c3ccc([C@@H]4c5ccc(O)cc5CC[C@@H]4c4ccccc4)cc3)CC2)C1 (stereo partly drawn)
Which numeric Degradation rate (%) of ERα in MCF-7 cells is bigger, that of 1 or that of 2 ? // return label of chosen record
2
(2: 67%, 1: 41%)

====

assayTarget: ERα (Homo sapiens, UniProt P03372)
Sequence (P03372 1-595): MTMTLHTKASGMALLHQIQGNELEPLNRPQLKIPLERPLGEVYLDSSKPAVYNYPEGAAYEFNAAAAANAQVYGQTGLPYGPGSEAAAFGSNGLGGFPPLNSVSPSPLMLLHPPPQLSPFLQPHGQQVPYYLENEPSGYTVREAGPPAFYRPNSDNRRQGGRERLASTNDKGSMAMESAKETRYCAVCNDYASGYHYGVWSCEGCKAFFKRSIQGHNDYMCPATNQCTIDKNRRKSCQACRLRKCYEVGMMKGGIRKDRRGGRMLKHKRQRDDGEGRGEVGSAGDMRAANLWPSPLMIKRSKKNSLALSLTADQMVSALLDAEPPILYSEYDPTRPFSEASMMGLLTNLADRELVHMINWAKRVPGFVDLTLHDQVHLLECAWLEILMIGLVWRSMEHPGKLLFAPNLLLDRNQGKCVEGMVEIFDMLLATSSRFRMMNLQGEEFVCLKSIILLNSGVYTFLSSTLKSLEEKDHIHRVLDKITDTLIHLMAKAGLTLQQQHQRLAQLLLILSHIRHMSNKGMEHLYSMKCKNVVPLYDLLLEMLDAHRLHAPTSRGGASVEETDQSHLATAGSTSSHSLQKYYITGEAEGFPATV
protocolDescription: Degradation of ERα in T-47D cells (immunoblotting, 4 h)
Type: cell-based
Design: host or cells: T-47D
experimentalContext: 10nM compound
resultType: Degradation rate (%) of ERα in T-47D cells

Here is how some compounds turned out for Degradation rate (%) of ERα in T-47D cells.
O=C1CCC(N2Cc3c(ccc4c3OCC43CCN(C(=O)C4CCN(CC5CCN(c6ccc([C@@H]7c8ccc(O)cc8CC[C@@H]7c7ccccc7)cc6)CC5)CC4)CC3)C2=O)C(=O)N1 (stereo partly drawn) [J8]
81
O=C1CCC(N2C(=O)c3cc4c(cc3C2=O)OC2(CCN(C(=O)CN3CCC5(CC3)CCN(c3ccc([C@@H]6c7ccc(O)cc7CC[C@@H]6c6ccccc6)cc3)CC5)CC2)C4)C(=O)N1 (stereo partly drawn) [A64]
61
CCN(CC(=O)N1CCC2(CC1)COc1c2ccc2c1CN(C1CCC(=O)NC1=O)C2=O)CC1CCN(c2ccc([C@@H]3c4ccc(O)cc4CC[C@@H]3c3ccccc3)cc2)CC1 (stereo partly drawn) [J12]
86
O=C1CCC(N2Cc3c(ccc4c3OCC43CCN(C4CCN(CC5CCN(c6ccc([C@@H]7c8ccc(O)cc8CC[C@@H]7c7ccccc7)cc6)CC5)CC4)CC3)C2=O)C(=O)N1 (stereo partly drawn) [G1]
53
O=C1CCC(N2Cc3cc4c(cc3C2=O)CCC2(CN(C(=O)C3CCC5(CC3)CN(c3ccc([C@@H]6c7ccc(O)cc7CC[C@@H]6c6ccccc6)cc3)C5)C2)O4)C(=O)N1 (stereo partly drawn) [A46]
33

(A) N#CC1(CN2CCC3(CC2)COc2c3ccc3c2CN(C2CCC(=O)NC2=O)C3=O)CCN(C(=O)C2CCN(c3ccc([C@@H]4c5ccc(O)cc5CC[C@@H]4c4ccccc4)cc3)CC2)CC1 (stereo partly drawn) [A108]
(B) O=C1CCC(N2Cc3cc4c(cc3C2=O)OC2(CC4)CN(CC3CCN(c4ccc([C@@H]5c6ccc(O)cc6CC[C@@H]5c5ccccc5)cc4)CC3)C2)C(=O)N1 (stereo partly drawn) [H3]
(C) O=C1CCC(N2C(=O)c3cc4c(cc3C2=O)OC2(CC4)CN(CC3CCN(c4ccc([C@@H]5c6ccc(O)cc6CC[C@@H]5c5ccccc5)cc4)CC3)C2)C(=O)N1 (stereo partly drawn) [H1]
(D) O=C1CCC(N2Cc3cc4c(cc3C2=O)OC2(CC4)CN(C(=O)C3CC4(CCN(c5ccc([C@@H]6c7ccc(O)cc7CC[C@@H]6c6ccccc6)cc5)CC4)C3)C2)C(=O)N1 (stereo partly drawn) [A49]
Rank the items in ascending order with respect to Degradation rate (%) of ERα in T-47D cells. API: response body holds the labels in the requested order.
B, C, D, A
(B: -56%, C: -15%, D: 48%, A: 73%)
